Entries and their measured protein stability index follow.
B1: FADS1 (parent)
chain: LNFQIEHHLFPTMPRHNYHKVAPL

variants of: B1; assay: protein stability index of a GFP-peptide fusion (GPS, HEK-293T) (PSI 1-6); higher = more stable; settings: c terminus: a fixed tail appended;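 further: lentivirally expressed fusions sorted by FACS into six bins by GFP to DsRed ratio, PSI derived from sequencing read proportions per bin multiplied by bin number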

Use the examples below as a reference point.
LNFQIEHHLFPTMPRHNYPKVAPL [H19P] : 3.38
LNFQIEHHLFPTMPRVNYHKVAPL [H16V] : 2.36
LNFQIEHHLFPTMPRHNYHKVEPL [A22E] : 1.85
LNFQNEHHLFPTMPRHNYHKVAPL [I5N] : 2.52
LNFQIEHHLVPTMPRHNYHKVAPL [F10V] : 1.05
LNFQIHHHLFPTMPRHNYHKVAPL [E6H] : 2.31
LNFQIERHLFPTMPRHNYHKVAPL [H7R] : 1.65
LNPQIEHHLFPTMPRHNYHKVAPL [F3P] : 1.95
LNFQIEHHLFPTMPRHNYHKWAPL [V21W] : 2.14
LNEQIEHHLFPTMPRHNYHKVAPL [F3E] : 2.65

Request: Return value of protein stability index for input LNFQIEHHLFPTMPRCNYHKVAPL [H16C] , no commentary.
Result: 3.19

Request: Return value of protein stability index for input LNFQYEHHLFPTMPRHNYHKVAPL [I5Y] , no commentary.
Result: 2.57

Request: Return value of protein stability index for input LNFQIEHHLFPTGPRHNYHKVAPL [M13G] , no commentary.
Result: 2.13

Request: Return value of protein stability index for input LNFQIEHHLFPTMMRHNYHKVAPL [P14M] , no commentary.
Result: 2.44

Request: Return value of protein stability index for input LNFQIEHHLFPTMPRSNYHKVAPL [H16S] , no commentary.
Result: 1.28

Request: Return value of protein stability index for input LNFQIEHHLFPWMPRHNYHKVAPL [T12W] , no commentary.
Result: 2.45

Request: Return value of protein stability index for input LNFQIEHHLFPAMPRHNYHKVAPL [T12A] , no commentary.
Result: 2.56

Request: Return value of protein stability index for input LNFQIEHHLFPTMPRHNYHKVAPI [L24I] , no commentary.
Result: 3.69

Request: Return value of protein stability index for input LNFQIEHHLFPTMPRHDYHKVAPL [N17D] , no commentary.
Result: 2.28
